# Run Description: Volume of distribution at steady state in Sprague-Dawley rat at 0.5 mg/kg, iv
# Assay type: ADME, organism-based
# Design: dose 0.5 mg/kg, route intravenous
# Particulars: in vivo, read-out: Vdss
Quantity Kind: Vd
Dear colleague, please send the value followed by its unit.

Consider N#Cc1ccc(-c2cc(NCC3CCOCC3)c3ncc(-c4ccc(C(=O)NC5CC5)cc4)n3n2)c(N)c1 . Its measured Vd is 2 L/kg

I have 5 molecules here; please give me Vd for each one.
1. CC(C)(Nc1cc(NCC2CCOCC2)c2ncc(-c3ccc(C(=O)NC4CC4)cc3)n2n1)C(F)(F)F
2. O=C(NC1CC1)c1ccc(-c2cnc3c(NCC4CCOCC4)cc(Oc4ccccc4F)nn23)cc1
3. O=C(NC1CC1)c1ccc(-c2cnc3c(NCC4CCOCC4)cc(Oc4ccccc4O)nn23)cc1
4. O=C(NC1CC1)c1ccc(-c2cnc3c(NCC4CCOCC4)cc(OC4CCCCC4)nn23)cc1
5. N#Cc1ccc(-c2cn3c(-c4ccc(C(=O)NC5CC5)cc4)cnc3c(NCC3CCOCC3)n2)cc1

Result:
1.3 L/kg
2 L/kg
2.2 L/kg
1.6 L/kg
5 L/kg

I have 2 molecules here; please give me Vd for each one.
1. CC(C)(C)Nc1cc(NCC2CCOCC2)c2ncc(-c3ccc(C(=O)NC4CC4)cc3)n2n1
2. N#Cc1ccc(-c2cc(NCC3CCOCC3)c3ncc(-c4ccc(C(=O)NC5CC5)cc4)n3n2)cc1

Result:
1: 1.7 L/kg; 2: 4.2 L/kg

* * *

# Run Description: AUC in BALB/c AJcl-nu/nu mouse at 10 mg/kg, po
# Type: ADME, organism-based
# Design: dose 10 mg/kg, route oral
# Particulars: plasma
Quantity Kind: AUC

Consider CC(C)(Nc1cc(NCC2CCOCC2)c2ncc(-c3ccc(C(=O)NC4CC4)cc3)n2n1)C(F)(F)F . Its measured AUC is 8000 ng·h/mL

* * *

# Tested on: A549
# Run Description: cells
# Particulars: Homo sapiens, A549, 72 h
Quantity Kind: IC50 (nM)
One number for each entry, in nM.

Consider O=C(NC1CC1)c1ccc(-c2cnc3c(NCC4CCOCC4)nccn23)cc1 . Its measured IC50 is 1500

* * *

# Run Description: Stability in rat liver microsomes assessed as compound remaining after 30 mins
# Assay type: ADME
# Particulars: read-out: Stability
Quantity Kind: remaining at 0.5 h (%)
One number for each entry, in %.

Examples with their reported remaining at 0.5 h follow.
Consider CC(C)(Nc1cc(NCC2CCOCC2)c2ncc(-c3ccc(C(=O)NC4CC4)cc3)n2n1)C(F)(F)F . Its measured remaining at 0.5 h is 41

Consider O=C(NC1CC1)c1ccc(-c2cnc3c(NCC4CCOCC4)cc(OC4CCCCC4)nn23)cc1 . Its measured remaining at 0.5 h is 55

Consider CC(C)(C)Nc1cc(NCC2CCOCC2)c2ncc(-c3ccc(C(=O)NC4CC4)cc3)n2n1 . Its measured remaining at 0.5 h is 59

New cases:
Consider O=C(NC1CC1)c1ccc(-c2cnc3c(NCC4CCOCC4)cc(Oc4ccccc4F)nn23)cc1 . Its measured remaining at 0.5 h is 39
